SYSTEM_TESTED: T1, 4H3015-AA
T1 chain: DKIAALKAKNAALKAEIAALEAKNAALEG
ASSAY_EXPLANATION: two-hybrid library CCmax;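 further: natural log of median RNA to DNA barcode read ratio; higher means stronger binding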
TEST_PARAMETERS: mean of both orientations
Listed here: items and their measured interaction score.

[
  {
    "BINDER": "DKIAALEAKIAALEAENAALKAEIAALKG [4H2330-AA]",
    "interaction score": -1.54
  },
  {
    "BINDER": "DKIAALKAENAALEAKIAALKAENAALKG [4H2732-AA]",
    "interaction score": 1.14
  },
  {
    "BINDER": "DEIAALEAENAALKAKNAALKAEIAALEG [4H249-AA]",
    "interaction score": -1.1
  },
  {
    "BINDER": "DENAALKAKNAALEAEIAALKAEIAALKG [4H1930-AA]",
    "interaction score": -1.72
  },
  {
    "BINDER": "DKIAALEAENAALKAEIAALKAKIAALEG [4H2253-AA]",
    "interaction score": -1.11
  }
]

Exercise: Tell us which interaction score value is on record for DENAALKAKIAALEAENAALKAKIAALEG [4H1821-AA]
Key: -1.83

Exercise: Look up and report measured interaction score for this entry: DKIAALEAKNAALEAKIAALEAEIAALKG [4H2466-AA]
Key: -1.65

The reported measurements were obtained from paper PMC10397247.
